B1: TPR 5TU (parent)
chain: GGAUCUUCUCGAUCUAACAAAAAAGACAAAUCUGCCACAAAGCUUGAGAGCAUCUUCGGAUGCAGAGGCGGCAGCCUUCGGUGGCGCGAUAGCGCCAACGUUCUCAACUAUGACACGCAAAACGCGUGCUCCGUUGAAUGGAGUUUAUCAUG

# Variants of: B1
# assay_overview: polymerase ribozyme fitness, log enrichment relative to wild type (log ratio); higher = more active; in vitro selection for triplet polymerase activity
This sample holds only a part of the variants without activity.
Measured polymerase ribozyme fitness (log ratio), listed per entry for reference.

>>> assay_result("C76G A97U")
"≤ -4.2"
>>> assay_result("C5A A66G C96U A115G U139G G140A")
"≤ -4.2"
>>> assay_result("A40G U90A")
"≤ -4.2"

polymerase ribozyme fitness (log ratio) reading for A24C G81U C87G U104G A110U : ≤ -4.2

Looking up C63U C75A G84A C118G A120G , I found its polymerase ribozyme fitness (log ratio) recorded as ≤ -4.2

Form field polymerase ribozyme fitness (log ratio), entry U13G A19C A29G G50C U127C : ≤ -4.2

Value of polymerase ribozyme fitness (log ratio) reported for the variant G86A C105G A138U is ≤ -4.2

polymerase ribozyme fitness (log ratio) recorded for this variant, C87A A97U , is ≤ -4.2

The measured polymerase ribozyme fitness (log ratio) associated with A40C C85G C108G reads ≤ -4.2

// sample C35G G58A G59U A60U A73C C116G C123A G140C , its polymerase ribozyme fitness (log ratio) was ≤ -4.2
